Taken from paper PMC10397247.

- testTarget: T1, 4H346-bN
- T1 chain: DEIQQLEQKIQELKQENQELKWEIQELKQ
- assayComment: two-hybrid library CCNG1;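 also: natural log of median RNA to DNA barcode read ratio; higher means stronger binding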
measurementLabel: interaction score

1) DKIQQLKQKNQELKQEIQELEWEIQELKQ [4H3010-bN]    -1.97

a = DKIQQLKQENQELEQEIQELKWKIQELKQ [4H2702-bN]
b = DKIQQLKQEIQELEQENQELKWEIQELEQ [4H2585-bN]
Ask: Lowest interaction score? choose a or b Choose, then provide that item's label.
Reply: a
(a: -0.668, b: 2.36)
